Where do these numbers come from? They come from ChEMBL document CHEMBL5357082.

Target: UniProt P08684
Sequence (P08684 whole entry): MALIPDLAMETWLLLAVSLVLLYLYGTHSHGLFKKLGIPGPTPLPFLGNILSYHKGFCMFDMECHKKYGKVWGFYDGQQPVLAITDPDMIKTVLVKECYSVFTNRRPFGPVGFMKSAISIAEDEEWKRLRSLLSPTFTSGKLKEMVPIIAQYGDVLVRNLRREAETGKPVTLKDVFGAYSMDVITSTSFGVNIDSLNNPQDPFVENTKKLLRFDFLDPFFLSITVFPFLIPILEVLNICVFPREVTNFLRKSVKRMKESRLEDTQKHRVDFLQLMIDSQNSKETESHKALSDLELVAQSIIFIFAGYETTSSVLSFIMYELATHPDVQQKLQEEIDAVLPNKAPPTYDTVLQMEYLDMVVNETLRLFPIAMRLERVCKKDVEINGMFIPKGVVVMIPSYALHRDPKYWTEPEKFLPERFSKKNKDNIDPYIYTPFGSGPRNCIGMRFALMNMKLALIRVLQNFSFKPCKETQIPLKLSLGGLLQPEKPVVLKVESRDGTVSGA
Experiment: Inhibition of CYP3A4 (unknown origin) using BFC as substrate preincubated with compound followed by substrate addition at 30 mins
Type: ADME
pIC50: −log10 of the molar value.
Reported pIC50 values follow for various compounds

| smiles input | recorded value |
| --- | --- |
| CCCCNc1nc(N)nc2c(CC)nn(Cc3ncc(C4CCNCC4)cc3OC)c12 | < 4.70 |
| CCC[C@@H](CCO)Nc1nc(N)nc2cnn(Cc3ncc(C4CC5(C4)CN(C4CCOCC4)C5)cc3OC)c12 | < 4.70 |

# next compound below
Return reported pIC50; argument: CCC[C@@H](CCO)Nc1nc(N)nc2cnn(Cc3ncc(C4CCN(CCO)CC4)cc3OC)c12 < 4.70
